Molecular target: Prostaglandin G/H synthase 1 (Ovis aries)
Sequence (P05979 whole entry): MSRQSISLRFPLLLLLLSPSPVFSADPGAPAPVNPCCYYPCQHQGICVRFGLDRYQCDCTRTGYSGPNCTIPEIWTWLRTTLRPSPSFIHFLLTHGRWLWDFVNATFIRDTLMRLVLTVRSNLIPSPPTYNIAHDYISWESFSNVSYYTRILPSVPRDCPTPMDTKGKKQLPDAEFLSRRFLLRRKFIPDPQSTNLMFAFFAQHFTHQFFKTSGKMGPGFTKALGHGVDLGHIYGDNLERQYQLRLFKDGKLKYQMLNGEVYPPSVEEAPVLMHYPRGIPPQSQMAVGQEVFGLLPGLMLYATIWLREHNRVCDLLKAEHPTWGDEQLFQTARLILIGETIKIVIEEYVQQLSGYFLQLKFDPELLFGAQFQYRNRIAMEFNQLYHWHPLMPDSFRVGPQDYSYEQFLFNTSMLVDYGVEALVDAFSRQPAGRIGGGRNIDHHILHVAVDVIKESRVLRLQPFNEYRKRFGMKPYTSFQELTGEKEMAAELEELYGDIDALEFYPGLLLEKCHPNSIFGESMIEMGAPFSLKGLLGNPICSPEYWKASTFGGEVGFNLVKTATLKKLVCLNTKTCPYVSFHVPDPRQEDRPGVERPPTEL
Some molecules, each annotated with its measured pIC50.
Reminder that pIC50 is minus the log10 of a molar concentration.

Here's what some known entries look like.
[[record]]
molecule = "CCCCCCC[Se]c1ccccc1OC(C)=O"
recorded_number = 4.92

[[record]]
molecule = "CCCCC#CC(C)Sc1ccccc1OC(C)=O (stereo unspecified)"
recorded_number = 4.82

[[record]]
molecule = "CCCCC#CCSc1ccccc1OC(C)=O"
recorded_number = 4.77


Note: attention shifts to another entry.
Query: Record lookup: for Prostaglandin G/H synthase 1 (Ovis aries), what pIC50 belongs to `CC#CCSc1ccccc1OC(C)=O` ?
Response: 4.46

----------
Some molecules, each annotated with its measured pIC50.
Target: Prostaglandin G/H synthase 1 (Ovis aries)
Sequence (P05979 whole entry): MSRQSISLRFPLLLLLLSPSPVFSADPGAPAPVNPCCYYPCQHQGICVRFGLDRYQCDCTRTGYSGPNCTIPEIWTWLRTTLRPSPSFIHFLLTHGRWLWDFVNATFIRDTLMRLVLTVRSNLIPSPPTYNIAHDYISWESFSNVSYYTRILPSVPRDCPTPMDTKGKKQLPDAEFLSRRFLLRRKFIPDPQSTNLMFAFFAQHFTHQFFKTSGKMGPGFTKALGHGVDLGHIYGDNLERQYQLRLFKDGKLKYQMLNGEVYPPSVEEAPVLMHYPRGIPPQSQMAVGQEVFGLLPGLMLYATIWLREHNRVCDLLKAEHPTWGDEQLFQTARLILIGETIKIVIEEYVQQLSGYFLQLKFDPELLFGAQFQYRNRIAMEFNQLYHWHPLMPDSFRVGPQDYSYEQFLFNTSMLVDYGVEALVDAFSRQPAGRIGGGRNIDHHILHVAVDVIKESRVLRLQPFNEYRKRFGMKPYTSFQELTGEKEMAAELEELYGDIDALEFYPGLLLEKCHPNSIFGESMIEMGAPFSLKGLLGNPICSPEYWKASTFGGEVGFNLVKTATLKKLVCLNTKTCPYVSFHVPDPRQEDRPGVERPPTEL
pIC50: −log10 of the molar value.

[[record]]
structure_notation = "CC(=O)OCCCCCSc1ccccc1OC(C)=O"
result = 4.30

[[record]]
structure_notation = "CC(=O)Oc1ccccc1SCCCCC#N"
result = "< 4.30"

[[record]]
structure_notation = "CC(=O)Oc1ccccc1SCCCCC(=O)O"
result = "< 4.30"


Query: Record lookup: for Prostaglandin G/H synthase 1 (Ovis aries), what pIC50 belongs to `CCCCCCCCCSc1ccccc1OC(C)=O` ?
Response: < 4.40

Query: Record lookup: for Prostaglandin G/H synthase 1 (Ovis aries), what pIC50 belongs to `CC(=O)Oc1ccccc1SCCCCCO` ?
Response: < 4.30

Query: Record lookup: for Prostaglandin G/H synthase 1 (Ovis aries), what pIC50 belongs to `CC(=O)Oc1ccccc1SCCCCCCI` ?
Response: 4.15

Query: Record lookup: for Prostaglandin G/H synthase 1 (Ovis aries), what pIC50 belongs to `CCC(=O)Oc1ccccc1SC` ?
Response: < 3.00

Query: Record lookup: for Prostaglandin G/H synthase 1 (Ovis aries), what pIC50 belongs to `CC(=O)Oc1ccccc1SC1CCCCC1` ?
Response: < 4.40
